test system: 317291-083-R-J1-PDC complex spheroids, viability; assay: Anticancer human tumor 317291-083-R-J1-PDC patient-derived soft tissue sarcoma cell line growth inhibition [GQUAD]; settings: second compound 0.1 µM; first compound 0.0316 µM; stronger effect = lower value
Form field: viability, T/C (one value per entry).
Response body: numeric value in %, unit text excluded.

Sample records with viability, T/C:
{"columns": ["molecule", "numeric-readout"],
 "data": [
  ["COc1cccc2c1C(=O)c1c(O)c3c(c(O)c1C2=O)CC(O)(C(=O)CO)CC3OC1CC(N)C(O)C(C)O1 (stereo not given) + Cc1cnc(CNC(=O)c2c(=O)c3ccc(N4CCCN(C)CC4)nc3n3c2sc2ccccc23)cn1", 62.7],
  ["CC1COCCN1c1cc(C2(O)CC3CCC(C2)O3)c2cnn(-c3ccn[nH]3)c2n1 (stereo not given) + Cc1[nH]c2ccc(F)cc2c1-c1nc2c3cccnc3c3ncccc3c2[nH]1", 68.5],
  ["CC1COCCN1c1cc(C2(S(C)(=N)=O)CC2)nc(-c2ccnc3[nH]ccc23)n1 (stereo not given) + CN(C)c1ccc(Nc2c3ccc(NC(=O)CCN4CCCC4)cc3nc3cc(NC(=O)CCN4CCCC4)ccc23)cc1", 141],
  ["CC[C@@]1(O)C(=O)OCc2c1cc1n(c2=O)Cc2cc3c(CN(C)C)c(O)ccc3nc2-1 + CN(C)c1ccc(Nc2c3ccc(NC(=O)CCN4CCCC4)cc3nc3cc(NC(=O)CCN4CCCC4)ccc23)cc1", 65.5]
]}

Hello, I am looking for reported viability, T/C with 317291-083-R-J1-PDC complex spheroids, viability for CC1COCCN1c1cc(-c2ccnn2C)c2ccnc(-c3ccn[nH]3)c2n1 (stereo not given) + CN(C)c1ccc(Nc2c3ccc(NC(=O)CCN4CCCC4)cc3nc3cc(NC(=O)CCN4CCCC4)ccc23)cc1 . Could you help?
84.5

====

System: 317291-083-R-J1-PDC complex spheroids, viability
Test: Anticancer human tumor 317291-083-R-J1-PDC cell line growth inhibition [GQUAD];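 further: spheroids exposed to compounds for one week before readout; percent viability relative to DMSO vehicle wells taken as 100%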
Conditions: second compound 10 µM; first compound 0.1 µM; stronger effect = lower value
From the text: DNA G-quadruplex Stabilizer Agents in Combinations in Complex Spheroids A high-throughput screen of multi-cell type tumor spheroids was designed to identify active combinations of DNA G-quadruplex stabilizer agents and targeted small molecules. […] Compounds. […] If the clinical Cmax for an agent had not been determined, the highest concentration tested was 10 microM. […]
Let's look at some compounds and their measured viability, T/C.
Express the result in % but write the number alone.

Known viability, T/C results, listed for orientation:
{"columns": ["compound", "viability, T/C / %"],
 "data": [
  ["CC1COCCN1c1cc(C2(S(C)(=N)=O)CC2)nc(-c2ccnc3[nH]ccc23)n1 (stereo not given) + CN(C)c1ccc(Nc2c3ccc(NC(=O)CCN4CCCC4)cc3nc3cc(NC(=O)CCN4CCCC4)ccc23)cc1", 5.73],
  ["COc1ccc([C@@H](O)c2cc(-c3ncnc4cc(N5CCOCC5)ccc34)c(F)cc2Cl)nn1 + Cc1[nH]c2ccc(F)cc2c1-c1nc2c3cccnc3c3ncccc3c2[nH]1", 66.5]
]}

I'm curious: which viability, T/C was measured for O=C(c1cc(Cc2n[nH]c(=O)c3ccccc23)ccc1F)N1CCN(C(=O)C2CC2)CC1 + CN(C)c1ccc(Nc2c3ccc(NC(=O)CCN4CCCC4)cc3nc3cc(NC(=O)CCN4CCCC4)ccc23)cc1 tested on 317291-083-R-J1-PDC complex spheroids, viability?
12.6

Hi! What's the reported viability, T/C for COc1cccc2c1C(=O)c1c(O)c3c(c(O)c1C2=O)CC(O)(C(=O)CO)CC3OC1CC(N)C(O)C(C)O1 (stereo not given) + Cc1[nH]c2ccc(F)cc2c1-c1nc2c3cccnc3c3ncccc3c2[nH]1 on 317291-083-R-J1-PDC complex spheroids, viability?
39.3

Under 317291-083-R-J1-PDC complex spheroids, viability: viability, T/C value of COc1cccc2c1C(=O)c1c(O)c3c(c(O)c1C2=O)CC(O)(C(=O)CO)CC3OC1CC(N)C(O)C(C)O1 (stereo not given) + Cc1cnc(CNC(=O)c2c(=O)c3ccc(N4CCCN(C)CC4)nc3n3c2sc2ccccc23)cn1 ?
15.6

API: value(readout=viability, T/C, system=317291-083-R-J1-PDC complex spheroids, viability) for record CC(=O)O[C@H]1C(=O)[C@@]2(C)[C@H]([C@H](OC(=O)c3ccccc3)[C@]3(O)C[C@H](OC(=O)[C@H](O)[C@@H](NC(=O)c4ccccc4)c4ccccc4)C(C)=C1C3(C)C)[C@]1(OC(C)=O)CO[C@@H]1C[C@@H]2O + Cc1cnc(CNC(=O)c2c(=O)c3ccc(N4CCCN(C)CC4)nc3n3c2sc2ccccc23)cn1
11.5

====

system: 317291-083-R-J1-PDC complex spheroids, viability; test: Anticancer human tumor 317291-083-R-J1-PDC cell line growth inhibition [GQUAD]; conditions: second compound 0.0316 µM; first compound 10 µM; stronger effect = lower value;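 further: spheroids exposed to compounds for one week before readout; percent viability relative to DMSO vehicle wells taken as 100%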
Checkbox rule: viability, T/C lower than 70% = YES; viability, T/C not lower than 70% = NO.

Here's what some known entries look like.
{"columns": ["compound", "label"],
 "data": [
  ["C=CCn1c(=O)c2cnc(Nc3ccc(N4CCN(C)CC4)cc3)nc2n1-c1cccc(C(C)(C)O)n1 + Cc1[nH]c2ccc(F)cc2c1-c1nc2c3cccnc3c3ncccc3c2[nH]1", "YES"],
  ["C=CC(=O)N1CCN(c2nc(=O)n(-c3c(C)ccnc3C(C)C)c3nc(-c4c(O)cccc4F)c(F)cc23)C(C)C1 (stereo not given) + Cc1[nH]c2ccc(F)cc2c1-c1nc2c3cccnc3c3ncccc3c2[nH]1", "YES"],
  ["CC(=O)O[C@H]1C(=O)[C@@]2(C)[C@H]([C@H](OC(=O)c3ccccc3)[C@]3(O)C[C@H](OC(=O)[C@H](O)[C@@H](NC(=O)c4ccccc4)c4ccccc4)C(C)=C1C3(C)C)[C@]1(OC(C)=O)CO[C@@H]1C[C@@H]2O + Cc1cnc(CNC(=O)c2c(=O)c3ccc(N4CCCN(C)CC4)nc3n3c2sc2ccccc23)cn1", "YES"]
]}

Is viability, T/C strictly under 70% for the entry Cc1cccc(N(C)C(=O)C2C(O)CCN2c2nc(C)cc(C(F)(F)F)c2C#N)c1 (stereo not given) + Cc1[nH]c2ccc(F)cc2c1-c1nc2c3cccnc3c3ncccc3c2[nH]1 ?
NO

====

test system: 317291-083-R-J1-PDC complex spheroids, viability; experiment: Anticancer human tumor 317291-083-R-J1-PDC cell line growth inhibition [GQUAD]; settings: second compound 0.316 µM; first compound 3.16 µM; stronger effect = lower value;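 further: spheroids exposed to compounds for one week before readout; percent viability relative to DMSO vehicle wells taken as 100%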
quantity-measured: viability, T/C (%)
Answer in %, number only, no unit symbol.

{"columns": ["compound", "viability, T/C (%)"],
 "data": [
  ["CC(C)(O)C1CCC(Nc2ccc3ncc(-c4cccc(C(F)(F)F)c4)n3n2)CC1 (stereo unspecified) + Cc1[nH]c2ccc(F)cc2c1-c1nc2c3cccnc3c3ncccc3c2[nH]1", 0.22],
  ["COc1cc(C2c3cc4c(cc3C(OC3OC5COC(C)OC5C(O)C3O)C3COC(=O)C23)OCO4)cc(OC)c1O (stereo unspecified) + Cc1cnc(CNC(=O)c2c(=O)c3ccc(N4CCCN(C)CC4)nc3n3c2sc2ccccc23)cn1", 16.2],
  ["CC1COCCN1c1cc(C2(O)CC3CCC(C2)O3)c2cnn(-c3ccn[nH]3)c2n1 (stereo unspecified) + Cc1[nH]c2ccc(F)cc2c1-c1nc2c3cccnc3c3ncccc3c2[nH]1", 12.1],
  ["CC1COCCN1c1cc(C2(O)CC3CCC(C2)O3)c2cnn(-c3ccn[nH]3)c2n1 (stereo unspecified) + CN(C)c1ccc(Nc2c3ccc(NC(=O)CCN4CCCC4)cc3nc3cc(NC(=O)CCN4CCCC4)ccc23)cc1", 12.8],
  ["Cc1cccc(N(C)C(=O)C2C(O)CCN2c2nc(C)cc(C(F)(F)F)c2C#N)c1 (stereo unspecified) + Cc1cnc(CNC(=O)c2c(=O)c3ccc(N4CCCN(C)CC4)nc3n3c2sc2ccccc23)cn1", 64]
]}

Fill blank: measured viability, T/C of the compound COc1ccc([C@@H](O)c2cc(-c3ncnc4cc(N5CCOCC5)ccc34)c(F)cc2Cl)nn1 + Cc1[nH]c2ccc(F)cc2c1-c1nc2c3cccnc3c3ncccc3c2[nH]1 is ____.
86.2

Item under review: C=CC(=O)N1CCN(c2nc(=O)n(-c3c(C)ccnc3C(C)C)c3nc(-c4c(O)cccc4F)c(F)cc23)C(C)C1 (stereo unspecified) + Cc1[nH]c2ccc(F)cc2c1-c1nc2c3cccnc3c3ncccc3c2[nH]1 . Reported viability, T/C?
104

Request the reported viability, T/C associated with Cc1cccc(N(C)C(=O)C2C(O)CCN2c2nc(C)cc(C(F)(F)F)c2C#N)c1 (stereo unspecified) + Cc1[nH]c2ccc(F)cc2c1-c1nc2c3cccnc3c3ncccc3c2[nH]1
121

For CC1COCCN1c1cc(C2(S(C)(=N)=O)CC2)nc(-c2ccnc3[nH]ccc23)n1 (stereo unspecified) + Cc1cnc(CNC(=O)c2c(=O)c3ccc(N4CCCN(C)CC4)nc3n3c2sc2ccccc23)cn1 , what is its reported viability, T/C?
12.2

Quick one: viability, T/C for O=c1[nH]cc(F)c(=O)[nH]1 + CN(C)c1ccc(Nc2c3ccc(NC(=O)CCN4CCCC4)cc3nc3cc(NC(=O)CCN4CCCC4)ccc23)cc1 ?
42.1

Which viability, T/C is listed for O=C(c1cc(Cc2n[nH]c(=O)c3ccccc23)ccc1F)N1CCN(C(=O)C2CC2)CC1 + CN(C)c1ccc(Nc2c3ccc(NC(=O)CCN4CCCC4)cc3nc3cc(NC(=O)CCN4CCCC4)ccc23)cc1 ?
73.5
